Target: KRAS
Settings: ASO, A431, 2 µM
After the bases stand the sugars from the 5' end (letter, count) and the backbone: PS all phosphorothioate, else s phosphorothioate and o phosphodiester by linkage. Methylation of C is not given here. e = 2'-O-(2-methoxyethyl) (MOE); k = constrained ethyl (cEt); d = 2'-deoxy (DNA)
target mRNA inhibition below 30% gives not satisfied; target mRNA inhibition at or above it gives satisfied.

sequence_text="CCATTTATGTGACTAG (sugars kkkddddddddkekek, PS)" assigned_category=satisfied
sequence_text="CATGCTGTGAAACTCT (sugars k3 d10 k3, PS)" assigned_category="not satisfied"
sequence_text="ATGGTGTAACATAGGT (sugars kkddddddddddkeke, PS)" assigned_category=satisfied
sequence_text="GATTTGTCAGCAGGAC (sugars kkddddddddkekekk, PS)" assigned_category="not satisfied"
sequence_text="AATTAATGTCTTGGCA (sugars k3 d10 k3, PS)" assigned_category="not satisfied"
sequence_text="ACAGATTGTGCTGAGC (sugars k3 d10 k3, PS)" assigned_category=satisfied
sequence_text="ATGCTGTGAAACTCTC (sugars kkddddddddkekekk, PS)" assigned_category="not satisfied"
sequence_text="TGTTTATGCAATGTTA (sugars kkdddddddddkdkdk, PS)" assigned_category=satisfied
sequence_text="TGTGCAATGGTGACAA (sugars k3 d10 k3, PS)" assigned_category="not satisfied"
sequence_text="TTAAAAAAAAAATTAA (sugars k3 d10 k3, PS)" assigned_category="not satisfied"
sequence_text="TCATTGTTTAAAAAAA (sugars k3 d10 k3, PS)" assigned_category="not satisfied"
sequence_text="TGTTTATGCAATGTTA (sugars kkddddddddddkeke, PS)" assigned_category="not satisfied"
sequence_text="AGTGATTAGGTCAAAT (sugars kkddddddddkekekk, PS)" assigned_category=satisfied
sequence_text="AGTTTCACATAGCAAT (sugars k3 d10 k3, PS)" assigned_category=satisfied
sequence_text="GCTCTTGATTTGTCAG (sugars k3 d10 k3, PS)" assigned_category="not satisfied"
sequence_text="AGATTGTGCTGAGCTT (sugars kddddddddddkekek, PS)" assigned_category="not satisfied"
sequence_text="AGATATCCACAGCAGC (sugars k3 d10 k3, PS)" assigned_category=satisfied
sequence_text="ATTGTGCTGAGCTTGA (sugars kdddddddddkekeke, PS)" assigned_category="not satisfied"
sequence_text="GATTGTGCTGAGCTTG (sugars kkddddddddkekekk, PS)" assigned_category="not satisfied"
sequence_text="AAGTGTTTATGCAATG (sugars k3 d10 k3, PS)" assigned_category=satisfied
sequence_text="CCAGTGATACTTTCAC (sugars kkddddddddkekekk, PS)" assigned_category="not satisfied"
sequence_text="AATGTCACAAGCAGAA (sugars k3 d10 k3, PS)" assigned_category=satisfied
sequence_text="ACCATTCAAAGTTCAC (sugars k3 d9 k3 e1, PS)" assigned_category=satisfied
sequence_text="GATTGTGCTGAGCTTG (sugars kkdddddddddkekek, PS)" assigned_category=satisfied
sequence_text="TGCAATGTTAATTTAA (sugars k3 d10 k3, PS)" assigned_category="not satisfied"
sequence_text="ATGGTGTAACATAGGT (sugars kkdddddddddkekek, PS)" assigned_category=satisfied
sequence_text="TTGTGCAATGGTGACA (sugars k3 d10 k3, PS)" assigned_category="not satisfied"
sequence_text="ATCTTTTAATGTCACA (sugars k3 d10 k3, PS)" assigned_category=satisfied
